# System: Platelet-derived growth factor receptor alpha (Homo sapiens), P16234 [V561D]
# Sequence (P16234 whole entry V561D): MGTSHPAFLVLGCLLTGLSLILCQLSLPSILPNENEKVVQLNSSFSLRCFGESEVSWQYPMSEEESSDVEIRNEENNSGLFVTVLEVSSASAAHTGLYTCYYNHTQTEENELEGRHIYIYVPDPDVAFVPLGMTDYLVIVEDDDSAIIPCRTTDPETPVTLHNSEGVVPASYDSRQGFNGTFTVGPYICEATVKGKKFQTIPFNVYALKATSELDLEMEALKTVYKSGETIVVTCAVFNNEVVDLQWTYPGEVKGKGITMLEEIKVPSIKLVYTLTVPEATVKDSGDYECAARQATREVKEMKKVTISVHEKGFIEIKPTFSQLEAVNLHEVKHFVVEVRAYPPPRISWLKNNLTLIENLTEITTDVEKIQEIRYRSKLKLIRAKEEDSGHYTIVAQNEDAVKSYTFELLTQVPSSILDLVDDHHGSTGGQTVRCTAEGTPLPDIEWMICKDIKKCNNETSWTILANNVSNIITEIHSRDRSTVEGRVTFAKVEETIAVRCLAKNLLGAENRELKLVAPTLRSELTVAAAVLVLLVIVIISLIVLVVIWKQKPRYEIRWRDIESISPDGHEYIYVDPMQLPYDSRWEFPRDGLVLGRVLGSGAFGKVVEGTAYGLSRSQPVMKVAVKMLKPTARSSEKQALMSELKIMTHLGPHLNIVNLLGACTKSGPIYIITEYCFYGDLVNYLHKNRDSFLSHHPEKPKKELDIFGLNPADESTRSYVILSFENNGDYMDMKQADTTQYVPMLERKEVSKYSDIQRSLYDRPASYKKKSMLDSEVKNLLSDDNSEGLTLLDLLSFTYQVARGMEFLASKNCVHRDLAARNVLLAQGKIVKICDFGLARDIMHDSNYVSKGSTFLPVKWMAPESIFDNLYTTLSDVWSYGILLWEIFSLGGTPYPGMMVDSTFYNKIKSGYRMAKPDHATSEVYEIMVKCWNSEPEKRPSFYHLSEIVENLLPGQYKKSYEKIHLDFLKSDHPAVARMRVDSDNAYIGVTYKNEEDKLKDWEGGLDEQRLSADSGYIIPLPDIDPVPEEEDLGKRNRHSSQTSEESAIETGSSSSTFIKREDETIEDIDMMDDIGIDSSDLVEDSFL
# condition.summary: at 0.1 µM
Classify by inhibition. Ranges: low range: < 5%; mid range: ≥ 5% and < 20%; high range: ≥ 20%

[
  {
    "query.smiles": "CCCNc1cccc(-n2ncc3c(N/N=C/c4ccncc4)ncnc32)c1",
    "target.entity": "Platelet-derived growth factor receptor alpha (Homo sapiens), P16234 [V561D]",
    "assigned.category": "mid range"
  },
  {
    "query.smiles": "COc1c(C(N)=O)cc(-c2ccc(Cl)cc2)cc1-c1ccc(S(N)(=O)=O)cc1",
    "target.entity": "Platelet-derived growth factor receptor alpha (Homo sapiens), P16234 [V561D]",
    "assigned.category": "low range"
  },
  {
    "query.smiles": "COc1cccc(-n2ncc3c(N/N=C/c4ccc(C(=O)NCCN(C)C)cc4)ncnc32)c1",
    "target.entity": "Platelet-derived growth factor receptor alpha (Homo sapiens), P16234 [V561D]",
    "assigned.category": "high range"
  },
  {
    "query.smiles": "COc1cc(Nc2ncc(-c3ccccc3)o2)cc(OC)c1",
    "target.entity": "Platelet-derived growth factor receptor alpha (Homo sapiens), P16234 [V561D]",
    "assigned.category": "high range"
  },
  {
    "query.smiles": "NS(=O)(=O)c1cccc(N/C=C2\\C(=O)Nc3ccccc32)c1",
    "target.entity": "Platelet-derived growth factor receptor alpha (Homo sapiens), P16234 [V561D]",
    "assigned.category": "mid range"
  },
  {
    "query.smiles": "CNC(=O)c1ncccc1Nc1nc(Nc2cc3c(cc2OC)CCCN3C(=O)CN(C)C)nc2[nH]ccc12",
    "target.entity": "Platelet-derived growth factor receptor alpha (Homo sapiens), P16234 [V561D]",
    "assigned.category": "low range"
  },
  {
    "query.smiles": "CN1CCC(n2cnc(-c3ccc(F)cc3)c2-c2ccnc(NCCO)n2)CC1",
    "target.entity": "Platelet-derived growth factor receptor alpha (Homo sapiens), P16234 [V561D]",
    "assigned.category": "mid range"
  },
  {
    "query.smiles": "FC(F)(F)CNc1nccc(-c2cnn3ncccc23)n1",
    "target.entity": "Platelet-derived growth factor receptor alpha (Homo sapiens), P16234 [V561D]",
    "assigned.category": "low range"
  },
  {
    "query.smiles": "CC(C)c1ccc(-c2cc(-c3c[nH]nc3-c3ccccn3)ccn2)cc1",
    "target.entity": "Platelet-derived growth factor receptor alpha (Homo sapiens), P16234 [V561D]",
    "assigned.category": "mid range"
  },
  {
    "query.smiles": "CN(C)CCNC(=O)Nc1ccc(N(C)c2ccnc(Nc3ccc(CS(C)(=O)=O)cc3)n2)cc1",
    "target.entity": "Platelet-derived growth factor receptor alpha (Homo sapiens), P16234 [V561D]",
    "assigned.category": "high range"
  }
]

---

# Test system: Leucine-rich repeat serine/threonine-protein kinase 2 (Homo sapiens), Q5S007 [G2019S]
# Sequence (Q5S007 whole entry G2019S): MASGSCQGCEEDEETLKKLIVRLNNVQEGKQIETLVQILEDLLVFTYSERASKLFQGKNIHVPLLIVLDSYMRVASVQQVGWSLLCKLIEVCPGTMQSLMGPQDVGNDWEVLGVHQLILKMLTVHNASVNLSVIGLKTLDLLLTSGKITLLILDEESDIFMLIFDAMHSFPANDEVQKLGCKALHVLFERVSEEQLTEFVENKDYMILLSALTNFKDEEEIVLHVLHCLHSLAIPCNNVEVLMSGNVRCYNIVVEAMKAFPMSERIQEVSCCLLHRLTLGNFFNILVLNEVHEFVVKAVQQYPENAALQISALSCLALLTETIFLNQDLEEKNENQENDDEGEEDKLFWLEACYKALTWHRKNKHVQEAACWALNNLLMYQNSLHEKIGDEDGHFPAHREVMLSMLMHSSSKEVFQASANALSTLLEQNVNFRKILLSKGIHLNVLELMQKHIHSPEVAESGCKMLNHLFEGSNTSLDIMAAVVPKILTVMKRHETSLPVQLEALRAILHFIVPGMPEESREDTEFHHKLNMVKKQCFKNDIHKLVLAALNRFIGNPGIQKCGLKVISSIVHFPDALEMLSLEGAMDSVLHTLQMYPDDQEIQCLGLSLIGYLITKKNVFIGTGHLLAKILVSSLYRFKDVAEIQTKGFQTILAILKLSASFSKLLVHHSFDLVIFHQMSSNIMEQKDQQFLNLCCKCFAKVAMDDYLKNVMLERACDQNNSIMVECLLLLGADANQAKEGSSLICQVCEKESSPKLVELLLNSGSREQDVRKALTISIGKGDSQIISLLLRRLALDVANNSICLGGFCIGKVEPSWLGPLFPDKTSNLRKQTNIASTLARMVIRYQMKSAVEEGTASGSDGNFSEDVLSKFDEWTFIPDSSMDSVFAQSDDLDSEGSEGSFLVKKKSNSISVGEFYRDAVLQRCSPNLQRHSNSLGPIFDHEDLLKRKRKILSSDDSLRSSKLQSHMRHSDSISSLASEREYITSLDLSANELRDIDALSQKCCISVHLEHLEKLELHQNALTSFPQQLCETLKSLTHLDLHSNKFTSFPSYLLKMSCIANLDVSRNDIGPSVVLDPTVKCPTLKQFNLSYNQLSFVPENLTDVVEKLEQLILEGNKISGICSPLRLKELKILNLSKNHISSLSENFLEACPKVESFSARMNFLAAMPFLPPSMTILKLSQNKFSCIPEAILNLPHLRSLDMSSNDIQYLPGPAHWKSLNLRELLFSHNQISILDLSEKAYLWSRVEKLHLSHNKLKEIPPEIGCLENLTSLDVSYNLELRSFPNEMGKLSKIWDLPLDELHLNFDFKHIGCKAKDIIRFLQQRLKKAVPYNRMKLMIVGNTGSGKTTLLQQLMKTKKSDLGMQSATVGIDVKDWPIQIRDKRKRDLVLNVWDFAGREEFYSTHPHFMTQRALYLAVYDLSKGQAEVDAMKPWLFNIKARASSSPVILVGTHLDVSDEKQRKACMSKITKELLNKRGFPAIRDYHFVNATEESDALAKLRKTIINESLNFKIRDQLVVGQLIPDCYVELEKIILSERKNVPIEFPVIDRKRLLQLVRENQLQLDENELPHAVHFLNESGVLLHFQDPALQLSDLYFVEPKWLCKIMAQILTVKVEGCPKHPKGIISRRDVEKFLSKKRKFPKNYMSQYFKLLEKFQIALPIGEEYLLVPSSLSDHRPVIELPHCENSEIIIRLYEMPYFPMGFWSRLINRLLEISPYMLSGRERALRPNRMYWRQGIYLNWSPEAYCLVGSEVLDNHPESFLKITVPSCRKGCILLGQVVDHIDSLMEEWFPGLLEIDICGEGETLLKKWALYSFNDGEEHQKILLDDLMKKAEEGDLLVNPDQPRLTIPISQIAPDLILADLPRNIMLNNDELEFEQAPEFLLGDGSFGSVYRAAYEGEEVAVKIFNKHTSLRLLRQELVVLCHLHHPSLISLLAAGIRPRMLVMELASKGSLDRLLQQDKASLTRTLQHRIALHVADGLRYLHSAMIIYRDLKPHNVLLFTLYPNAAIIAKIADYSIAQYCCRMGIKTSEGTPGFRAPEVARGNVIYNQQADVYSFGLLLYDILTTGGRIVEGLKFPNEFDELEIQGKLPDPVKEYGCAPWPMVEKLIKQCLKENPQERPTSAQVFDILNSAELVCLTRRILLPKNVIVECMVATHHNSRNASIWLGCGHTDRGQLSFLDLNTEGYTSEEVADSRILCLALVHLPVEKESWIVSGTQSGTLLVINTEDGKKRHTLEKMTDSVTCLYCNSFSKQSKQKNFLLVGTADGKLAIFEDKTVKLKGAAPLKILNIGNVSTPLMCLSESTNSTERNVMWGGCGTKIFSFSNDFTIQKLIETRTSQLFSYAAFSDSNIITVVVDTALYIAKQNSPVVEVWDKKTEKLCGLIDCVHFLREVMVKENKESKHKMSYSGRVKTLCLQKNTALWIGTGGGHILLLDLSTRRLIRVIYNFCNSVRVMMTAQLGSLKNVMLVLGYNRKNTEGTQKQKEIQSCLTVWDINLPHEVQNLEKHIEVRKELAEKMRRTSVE
# condition.summary: at 0.1 µM

[
  {
    "query.smiles": "Cn1c(-c2nonc2N)nc2cnccc21",
    "uom": "%",
    "inhibition": 4.16
  },
  {
    "query.smiles": "COc1cc(Nc2ncc(-c3ccccc3)o2)cc(OC)c1",
    "uom": "%",
    "inhibition": 2.33
  },
  {
    "query.smiles": "COc1ccccc1-c1cc(/C=C2\\C(=O)Nc3ncc(Br)cc32)cc(Br)c1O",
    "uom": "%",
    "inhibition": 13.5
  },
  {
    "query.smiles": "FC(F)(F)CNc1nccc(-c2cnn3ncccc23)n1",
    "uom": "%",
    "inhibition": 5.03
  },
  {
    "query.smiles": "CN(c1ccc(NC(=O)NCCN2CCOCC2)cc1)c1ccnc(Nc2ccc(CS(C)(=O)=O)cc2)n1",
    "uom": "%",
    "inhibition": 2.66
  },
  {
    "query.smiles": "Cc1ccc(-c2cc3c(NC(=O)C4CC4)ncnc3o2)cc1",
    "uom": "%",
    "inhibition": 9.7
  },
  {
    "query.smiles": "Cc1cc(O)cc(C)c1/C=C/c1cncc(C(N)=O)c1",
    "uom": "%",
    "inhibition": 3.18
  },
  {
    "query.smiles": "Cc1cc(O)cc(C)c1/C=C/c1cncc(C(=O)OC(C)(C)C)c1",
    "uom": "%",
    "inhibition": 6.75
  },
  {
    "query.smiles": "CS(=O)(=O)Nc1ccc(-c2cc(-c3ccccc3)cc(C(N)=O)c2N)cc1",
    "uom": "%",
    "inhibition": 3.87
  },
  {
    "query.smiles": "COc1c(C(N)=O)cc(-c2ccc(Cl)cc2)cc1-c1ccc(S(N)(=O)=O)cc1",
    "uom": "%",
    "inhibition": 3.53
  },
  {
    "query.smiles": "CS(=O)(=O)Nc1ccc(-c2ccc3c(NC(=O)C4CC4)n[nH]c3c2)cc1",
    "uom": "%",
    "inhibition": 9.88
  },
  {
    "query.smiles": "CN1CCC(n2cnc(-c3ccc(F)cc3)c2-c2ccnc(NCCO)n2)CC1",
    "uom": "%",
    "inhibition": 4.69
  },
  {
    "query.smiles": "COc1cc2c(cc1Nc1nc(Nc3cccc(F)c3C(N)=O)c3cc[nH]c3n1)N(C(=O)CN1CCN(C(C)C)CC1)CC2",
    "uom": "%",
    "inhibition": 41.5
  },
  {
    "query.smiles": "CS(=O)(=O)CCNCc1ccc(-c2ccc3ncnc(Nc4ccc(OCc5ccccc5)cc4)c3c2)o1",
    "uom": "%",
    "inhibition": 2.93
  }
]

---

# target.entity: cGMP-dependent protein kinase 1 (Homo sapiens) (UniProt Q13976);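 note: listed percent inhibition of PRKG1 is a mean value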
# Sequence (Q13976 whole entry): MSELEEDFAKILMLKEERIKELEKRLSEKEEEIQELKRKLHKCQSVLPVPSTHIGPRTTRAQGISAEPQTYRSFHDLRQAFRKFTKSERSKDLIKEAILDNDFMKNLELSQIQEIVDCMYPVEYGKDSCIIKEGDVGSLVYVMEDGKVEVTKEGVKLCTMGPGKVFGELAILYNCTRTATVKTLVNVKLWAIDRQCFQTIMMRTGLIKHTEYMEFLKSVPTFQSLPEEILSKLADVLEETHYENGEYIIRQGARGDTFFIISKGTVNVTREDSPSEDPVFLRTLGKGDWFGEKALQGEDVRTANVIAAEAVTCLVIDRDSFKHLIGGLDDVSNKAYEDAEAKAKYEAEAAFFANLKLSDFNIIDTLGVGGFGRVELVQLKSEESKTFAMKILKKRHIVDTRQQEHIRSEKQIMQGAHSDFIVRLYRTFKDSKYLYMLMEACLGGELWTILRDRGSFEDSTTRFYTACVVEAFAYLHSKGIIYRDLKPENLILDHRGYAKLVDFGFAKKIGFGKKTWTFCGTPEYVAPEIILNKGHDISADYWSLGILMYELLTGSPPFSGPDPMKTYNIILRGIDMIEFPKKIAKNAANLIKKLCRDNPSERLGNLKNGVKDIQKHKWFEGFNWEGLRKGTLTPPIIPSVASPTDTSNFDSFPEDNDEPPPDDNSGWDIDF
# condition.summary: at 1 µM

[
  {
    "compound": "CNC(=O)c1ncccc1Nc1nc(Nc2cc3c(cc2OC)CCCN3C(=O)CN(C)C)nc2[nH]ccc12",
    "target.entity": "cGMP-dependent protein kinase 1 (Homo sapiens) (UniProt Q13976)",
    "inhibition [%]": 7.42
  },
  {
    "compound": "CN1CCC(n2cnc(-c3ccc(F)cc3)c2-c2ccnc(NCCO)n2)CC1",
    "target.entity": "cGMP-dependent protein kinase 1 (Homo sapiens) (UniProt Q13976)",
    "inhibition [%]": 4.89
  },
  {
    "compound": "CC1(C)CC(n2cnc(-c3ccc(F)cc3)c2-c2ccnc(N)n2)CC(C)(C)N1",
    "target.entity": "cGMP-dependent protein kinase 1 (Homo sapiens) (UniProt Q13976)",
    "inhibition [%]": 2.53
  },
  {
    "compound": "c1cnn2ncc(-c3ccnc(NCCCN4CCOCC4)n3)c2c1",
    "target.entity": "cGMP-dependent protein kinase 1 (Homo sapiens) (UniProt Q13976)",
    "inhibition [%]": 8.93
  },
  {
    "compound": "NS(=O)(=O)c1ccc(N/N=C2\\C(=O)Nc3cccc(CCc4ccncc4)c32)cc1",
    "target.entity": "cGMP-dependent protein kinase 1 (Homo sapiens) (UniProt Q13976)",
    "inhibition [%]": -0.46
  },
  {
    "compound": "N#Cc1ccc2c(-c3ccnc(NC4CC4)n3)c(-c3ccc(F)cc3)nn2c1",
    "target.entity": "cGMP-dependent protein kinase 1 (Homo sapiens) (UniProt Q13976)",
    "inhibition [%]": -0.35
  },
  {
    "compound": "COC(=O)Nc1nc2ccc(Oc3ccc(NC(=O)Nc4cc(C(F)(F)F)ccc4F)cc3)cc2s1",
    "target.entity": "cGMP-dependent protein kinase 1 (Homo sapiens) (UniProt Q13976)",
    "inhibition [%]": 2.05
  },
  {
    "compound": "CC1=C(C(=O)Nc2ccc3[nH]ncc3c2)C(c2ccc(F)cc2)N=C(c2ccc(C(F)(F)F)nc2)N1 (centres undefined)",
    "target.entity": "cGMP-dependent protein kinase 1 (Homo sapiens) (UniProt Q13976)",
    "inhibition [%]": 42.2
  },
  {
    "compound": "Cc1nnc(-c2cccc(-c3ccc(C(=O)NCC4CC4)cc3)c2)o1",
    "target.entity": "cGMP-dependent protein kinase 1 (Homo sapiens) (UniProt Q13976)",
    "inhibition [%]": 5.43
  }
]

---

# target.entity: Serine/threonine-protein kinase 10 (Homo sapiens) (UniProt O94804);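 note: mean percent inhibition of LOK (STK10)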
# condition.summary: at 0.1 µM

[
  {
    "query.smiles": "COc1cc(Nc2ncc(-c3ccccc3)o2)cc(OC)c1",
    "inhibition / %": 8.54
  },
  {
    "query.smiles": "COc1cc(N2CCN(C(C)C)CC2)ccc1Nc1nc(Nc2cccc(F)c2C(=O)O)c2cc[nH]c2n1",
    "inhibition / %": 5.69
  },
  {
    "query.smiles": "CCOc1ccc2c(-c3ccnc(Nc4cc(OC)cc(C(F)(F)F)c4)n3)cnn2n1",
    "inhibition / %": -0.06
  },
  {
    "query.smiles": "CS(=O)(=O)CCNCc1ccc(-c2ccc3ncnc(Nc4ccc(OCc5ccccc5)cc4)c3c2)o1",
    "inhibition / %": 5.66
  },
  {
    "query.smiles": "O=C(O[C@H]1CN[C@H](C#Cc2cc3ncnc(Nc4ccc(OCc5cccc(F)c5)c(Cl)c4)c3s2)C1)N1CCOCC1",
    "inhibition / %": 9.8
  },
  {
    "query.smiles": "CN(C)CCNC(=O)Nc1ccc(N(C)c2ccnc(Nc3ccc(CS(C)(=O)=O)cc3)n2)cc1",
    "inhibition / %": 7.91
  },
  {
    "query.smiles": "COc1ccc(Nc2ncc(-c3ccccc3)o2)cc1OC",
    "inhibition / %": -1.08
  },
  {
    "query.smiles": "Cc1cc(O)cc(C)c1/C=C/c1cncc(C(=O)OC(C)(C)C)c1",
    "inhibition / %": 5.45
  },
  {
    "query.smiles": "COC(=O)Nc1nc2ccc(Oc3ccc(NC(=O)Nc4cc(C(F)(F)F)ccc4F)cc3)cc2s1",
    "inhibition / %": 24.5
  }
]
